# Test system: BDF1 mice, P388 leukemia ip, median survival T/C
# Protocol Notes: NCI In Vivo Anticancer Drug Screen. Data for tumor model P388 Leukemia (intraperitoneal) in B6D2F1 (BDF1) mice
# Condition Context: endpoint: median survival time; dose: 200.0 mg/kg/injection; schedule: Q04DX003 (ip); vehicle: water
Toxic doses and inconclusive results are not listed. The calls were made as follows: active = survival T/C of 150% or more; inactive = T/C below 125% in these data.
Write down the outcome that applies. Available outcomes: Y for active, N for inactive

Molecule: CC(O)Cc1c[nH]c(=O)[nH]c1=O (centres undefined)
Cat: N
//
Molecule: Cn1ccc(=O)c2cc([N+](=O)[O-])ccc21
Cat: N

So what was the verdict on O=C(c1ccccc1)c1c(-c2ccccc2)c(C(=O)c2ccccc2)c2ccccc2c1Cl in this test?
N
